meta.source: paper PMC7468911

# TARGET UNDER TEST: ABCC11 (Homo sapiens, UniProt Q96J66)
# Construct: full-length human ABCC11 WT
# Sequence (Q96J66 whole entry): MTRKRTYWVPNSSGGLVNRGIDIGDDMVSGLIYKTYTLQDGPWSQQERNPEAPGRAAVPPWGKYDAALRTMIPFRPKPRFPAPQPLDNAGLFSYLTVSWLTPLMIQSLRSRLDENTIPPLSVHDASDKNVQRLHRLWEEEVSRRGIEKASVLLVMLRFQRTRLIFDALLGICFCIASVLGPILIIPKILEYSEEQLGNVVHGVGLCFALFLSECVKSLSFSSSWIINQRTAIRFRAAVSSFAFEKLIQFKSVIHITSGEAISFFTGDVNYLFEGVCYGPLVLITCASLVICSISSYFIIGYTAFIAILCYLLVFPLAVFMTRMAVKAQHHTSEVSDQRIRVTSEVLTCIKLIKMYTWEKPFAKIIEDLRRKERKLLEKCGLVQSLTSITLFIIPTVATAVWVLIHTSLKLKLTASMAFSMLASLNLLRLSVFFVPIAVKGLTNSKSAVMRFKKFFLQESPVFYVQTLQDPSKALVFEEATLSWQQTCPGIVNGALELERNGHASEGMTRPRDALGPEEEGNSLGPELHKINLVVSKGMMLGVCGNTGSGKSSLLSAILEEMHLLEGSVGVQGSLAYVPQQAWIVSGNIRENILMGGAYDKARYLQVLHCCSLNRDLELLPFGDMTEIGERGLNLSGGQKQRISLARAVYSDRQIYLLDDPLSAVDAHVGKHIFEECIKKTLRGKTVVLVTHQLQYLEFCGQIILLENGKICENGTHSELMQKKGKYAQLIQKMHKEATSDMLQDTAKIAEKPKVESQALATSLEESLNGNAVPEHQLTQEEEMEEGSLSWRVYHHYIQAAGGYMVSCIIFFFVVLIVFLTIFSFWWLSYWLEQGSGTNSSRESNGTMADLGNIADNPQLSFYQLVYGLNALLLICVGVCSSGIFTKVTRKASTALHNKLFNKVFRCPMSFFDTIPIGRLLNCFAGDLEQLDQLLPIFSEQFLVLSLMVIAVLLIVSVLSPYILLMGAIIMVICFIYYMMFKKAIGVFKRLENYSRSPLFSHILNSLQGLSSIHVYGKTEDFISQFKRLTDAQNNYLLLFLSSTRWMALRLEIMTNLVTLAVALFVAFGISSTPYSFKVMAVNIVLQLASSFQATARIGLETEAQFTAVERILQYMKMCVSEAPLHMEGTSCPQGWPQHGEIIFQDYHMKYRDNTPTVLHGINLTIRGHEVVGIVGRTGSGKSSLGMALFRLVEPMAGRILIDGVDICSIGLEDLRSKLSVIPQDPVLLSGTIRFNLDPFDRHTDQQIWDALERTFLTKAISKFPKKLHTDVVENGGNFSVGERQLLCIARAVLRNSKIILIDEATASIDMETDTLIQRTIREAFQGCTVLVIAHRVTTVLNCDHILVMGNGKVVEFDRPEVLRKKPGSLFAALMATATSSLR
# ASSAY TEXT: biochemical
# Parameters: Vesicle transport assay: ATP-dependent uptake of radiolabeled DHEA-S into ABCC11-expressing membrane vesicles, rapid filtration, scintillation counting
# ASSAY CONTEXT: ABCC11-mediated DHEA-S transport, % of control, 5 min, 37 °C
PARAMETER: remaining activity at 100 µM (%)

- O=c1c(O)c(-c2ccc(O)c(O)c2)oc2cc(O)cc(O)c12 [Quercetin]: 34.6
- O=C(O[C@@H]1Cc2c(O)cc(O)cc2O[C@@H]1c1cc(O)c(O)c(O)c1)c1cc(O)c(O)c(O)c1 [(−)-Epigallocatechin gallate]: 37.5
- O=c1cc(-c2ccc(O)cc2)oc2cc(O)cc(O)c12 [Apigenin]: 25.3

###

# TARGET UNDER TEST: ABCC11 (Homo sapiens, UniProt Q96J66)
# Construct: full-length human ABCC11 WT
# ASSAY TEXT: biochemical
# Design: Vesicle transport assay: ATP-dependent uptake of radiolabeled DHEA-S into ABCC11-expressing membrane vesicles, rapid filtration, scintillation counting
# ASSAY CONTEXT: ABCC11-mediated DHEA-S transport, % of control, 5 min, 37 °C
PARAMETER: remaining activity at 100 µM (%)

* Oc1cc(O)c2c(c1)O[C@H](c1ccc(O)c(O)c1)[C@@H](O)C2 [(+)-Catechin] | 91.9
* Oc1cc(O)c2c(c1)O[C@H](c1cc(O)c(O)c(O)c1)[C@@H](O)C2 [(+)-Gallocatechin] | 87.6
* O=c1c(O)c(-c2ccc(O)c(O)c2)oc2c(O)c(O)cc(O)c12 [Gossypetin] | 46
